systemUnderTest: UniProt O75116
pIC50: −log10 of the molar value.
parameterMeasured: pIC50

Answered examples (3):
INSERT INTO measurements (compound, parametermeasured, result) VALUES
  ('NC(CNC(=O)C1(c2ccc(F)cc2)CC1)c1ccc(C(=O)Nc2ccncc2)cc1 (stereo not given)', 'pIC50', '> 6.70'),
  ('NC(CNC(=O)Cc1ccc(-c2ccccc2)cc1)c1ccc(C(=O)Nc2ccncc2)cc1 (stereo not given)', 'pIC50', '5.30 to 6.30'),
  ('COc1cccc2cc(C(=O)NCC(N)c3ccc(C(=O)Nc4ccncc4)cc3)oc12 (stereo not given)', 'pIC50', '6.30 to 7.30');

Prompt: Find the measured pIC50: item NC(CC(=O)NCCc1cccs1)c1ccc(C(=O)Nc2ccncc2)cc1 (stereo not given) , target or system UniProt O75116.
Response: 6.30 to 7.30

Prompt: Given the entry NC(c1ccc(C(=O)Nc2ccncc2)cc1)C1CCCN1C(=O)C1(c2ccc(Cl)cc2F)CC1 (stereo not given) , what pIC50 was observed with UniProt O75116?
Response: 5.30 to 6.30

====

IC50: recorded values
systemUnderTest: ROCK2 (human) (UniProt O75116)
Sequence (O75116 whole entry, looked up): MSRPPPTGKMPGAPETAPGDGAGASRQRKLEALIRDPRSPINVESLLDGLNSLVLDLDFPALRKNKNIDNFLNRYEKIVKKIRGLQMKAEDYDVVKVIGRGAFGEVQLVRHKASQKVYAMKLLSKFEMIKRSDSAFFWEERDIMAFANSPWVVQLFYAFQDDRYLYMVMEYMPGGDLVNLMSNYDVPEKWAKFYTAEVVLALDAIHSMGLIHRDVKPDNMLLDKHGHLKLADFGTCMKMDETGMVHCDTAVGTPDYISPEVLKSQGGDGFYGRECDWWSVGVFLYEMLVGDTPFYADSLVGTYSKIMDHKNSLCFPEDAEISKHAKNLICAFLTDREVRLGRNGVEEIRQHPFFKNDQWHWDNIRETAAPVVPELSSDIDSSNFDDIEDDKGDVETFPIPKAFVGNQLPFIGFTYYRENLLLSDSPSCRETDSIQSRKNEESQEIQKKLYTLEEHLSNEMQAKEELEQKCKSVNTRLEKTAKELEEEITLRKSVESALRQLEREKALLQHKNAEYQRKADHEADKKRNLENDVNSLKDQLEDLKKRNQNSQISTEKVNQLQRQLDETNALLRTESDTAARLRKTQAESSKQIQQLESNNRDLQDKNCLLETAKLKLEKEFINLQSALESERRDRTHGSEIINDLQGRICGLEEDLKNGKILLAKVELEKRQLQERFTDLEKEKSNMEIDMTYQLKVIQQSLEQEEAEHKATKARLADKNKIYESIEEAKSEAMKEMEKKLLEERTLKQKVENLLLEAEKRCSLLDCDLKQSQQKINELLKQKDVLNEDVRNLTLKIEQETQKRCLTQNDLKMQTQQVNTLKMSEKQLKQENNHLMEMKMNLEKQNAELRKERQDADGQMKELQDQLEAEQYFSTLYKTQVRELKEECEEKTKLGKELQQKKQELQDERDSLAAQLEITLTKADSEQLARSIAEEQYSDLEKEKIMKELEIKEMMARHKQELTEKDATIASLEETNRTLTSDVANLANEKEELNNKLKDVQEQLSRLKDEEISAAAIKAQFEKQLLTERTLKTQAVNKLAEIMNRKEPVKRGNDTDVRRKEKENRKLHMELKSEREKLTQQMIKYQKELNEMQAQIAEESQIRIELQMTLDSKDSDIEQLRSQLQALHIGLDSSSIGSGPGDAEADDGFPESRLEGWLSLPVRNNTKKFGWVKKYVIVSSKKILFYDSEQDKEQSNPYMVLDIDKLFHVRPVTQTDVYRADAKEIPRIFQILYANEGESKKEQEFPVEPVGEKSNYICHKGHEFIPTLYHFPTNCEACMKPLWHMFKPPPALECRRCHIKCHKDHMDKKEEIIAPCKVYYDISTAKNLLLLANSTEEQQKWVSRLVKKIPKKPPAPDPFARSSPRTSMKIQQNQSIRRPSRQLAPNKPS

Examples with answers:
INSERT INTO measurements (molecule, systemundertest, result) VALUES
  ('NC(CC(=O)NCc1cccc(Cl)c1Cl)c1ccc(C(=O)Nc2ccncc2)cc1 (stereo not given)', 'ROCK2 (human) (UniProt O75116)', '50 to 500 nM'),
  ('NC(CNC(=O)CNC(=O)c1ccco1)c1ccc(C(=O)Nc2ccncc2)cc1 (stereo not given)', 'ROCK2 (human) (UniProt O75116)', '50 to 500 nM'),
  ('COc1ccc(CNC(=O)CC(N)c2ccc(C(=O)Nc3ccncc3)cc2)cc1 (stereo not given)', 'ROCK2 (human) (UniProt O75116)', '50 to 500 nM'),
  ('CCOc1ccc(CCNC(=O)CC(N)c2ccc(C(=O)Nc3ccncc3)cc2)cc1 (stereo not given)', 'ROCK2 (human) (UniProt O75116)', '50 to 500 nM'),
  ('NC(CNC(=O)c1csc(-c2ccccc2)n1)c1ccc(C(=O)Nc2ccncc2)cc1 (stereo not given)', 'ROCK2 (human) (UniProt O75116)', '500 to 5000 nM'),
  ('CN(CC(N)c1ccc(C(=O)Nc2ccncc2)cc1)C(=O)C1(c2ccc(F)cc2)CCC1 (stereo not given)', 'ROCK2 (human) (UniProt O75116)', '500 to 5000 nM');

Prompt: What reported IC50 corresponds to NC(CNC(=O)C1CCSc2ccccc21)c1ccc(C(=O)Nc2ccncc2)cc1 (stereo not given) on ROCK2 (human) (UniProt O75116)?
Response: 50 to 500 nM

Prompt: Recall the recorded IC50 for CN(CC(N)c1ccc(C(=O)Nc2ccncc2)cc1)C(=O)Cc1cccc2ccccc12 (stereo not given) with ROCK2 (human) (UniProt O75116) and state it.
Response: 500 to 5000 nM

Prompt: Request - read-out IC50 | tested on ROCK2 (human) (UniProt O75116) | molecule CN(CC(N)c1ccc(C(=O)Nc2ccncc2)cc1)C(=O)Cc1cccc(F)c1F (stereo not given)
Response: 500 to 5000 nM

Prompt: Please provide the recorded IC50 for CC(CNC(=O)CC(N)c1ccc(C(=O)Nc2ccncc2)cc1)c1ccccc1 (stereo not given) , tested on ROCK2 (human) (UniProt O75116).
Response: 50 to 500 nM

Prompt: Under ROCK2 (human) (UniProt O75116): IC50 value of NC(CC(=O)NCCc1ccc(Oc2ccccc2)cc1)c1ccc(C(=O)Nc2ccncc2)cc1 (stereo not given) ?
Response: 50 to 500 nM

Prompt: Enter reported IC50 observed with ROCK2 (human) (UniProt O75116) for COc1ccc(CCNC(=O)CC(N)c2ccc(C(=O)Nc3ccncc3)cc2)cc1OC (stereo not given)
Response: 500 to 5000 nM

====

This section lists IC50 readings for ROCK2 (human).

In the examples that follow, each entry is paired with its recorded IC50.
INSERT INTO measurements (molecule, parametermeasured, result) VALUES
  ('CN(CC(N)c1ccc(C(=O)Nc2ccncc2)cc1)C(=O)Cc1ccc(F)cc1F (stereo not given)', 'IC50', '500 to 5000 nM'),
  ('NC(CNC(=O)c1ccncc1)c1ccc(C(=O)Nc2ccncc2)cc1 (stereo not given)', 'IC50', '500 to 5000 nM'),
  ('CN(CC(N)c1ccc(C(=O)Nc2ccncc2)cc1)C(=O)Cc1ccc2ccccc2c1 (stereo not given)', 'IC50', '50 to 500 nM');

Prompt: Find the recorded IC50 belonging to NC(CC(=O)NCC1CCCO1)c1ccc(C(=O)Nc2ccncc2)cc1 (stereo not given) and report it.
Response: 50 to 500 nM

Prompt: Item CN(CC(N)c1ccc(C(=O)Nc2ccncc2)cc1)C(=O)Cc1ccc(-c2ccccc2)cc1 (stereo not given) has what recorded IC50?
Response: 500 to 5000 nM

Prompt: Record request: IC50 value, item NC(CC(=O)NCc1ccc(C(F)(F)F)cc1)c1ccc(C(=O)Nc2ccncc2)cc1 (stereo not given)
Response: 50 to 500 nM

Prompt: Which IC50 reading was recorded for the molecule COc1cc(OC)cc(C(=O)NCC(N)c2ccc(C(=O)Nc3ccncc3)cc2)c1 (stereo not given) ?
Response: 500 to 5000 nM

Prompt: Name the recorded IC50 for Cc1ccc(C(=O)NCC(N)c2ccc(C(=O)Nc3ccncc3)cc2)cc1 (stereo not given) .
Response: 500 to 5000 nM

Prompt: Recorded IC50 for COc1ccc2[nH]c(C(=O)NCC(N)c3ccc(C(=O)Nc4ccncc4)cc3)cc2c1 (stereo not given) , please?
Response: 500 to 5000 nM

Prompt: Which IC50 is reported for this molecule? CN(CC(N)c1ccc(C(=O)Nc2ccncc2)cc1)C(=O)Cc1ccc(F)c(F)c1 (stereo not given)
Response: 500 to 5000 nM

====

ROCK2 (human) (UniProt O75116) IC50 data

Would you please look over these solved cases?
INSERT INTO results (molecule, result) VALUES
  ('NC(c1ccc(C(=O)Nc2ccncc2)cc1)C1CCCN1C(=O)C1CCOc2ccc(Cl)cc21 (stereo not given)', '500 to 5000 nM'),
  ('CC1CC1C(=O)NCC(N)c1ccc(C(=O)Nc2ccncc2)cc1 (stereo not given)', '500 to 5000 nM'),
  ('NC(c1ccc(C(=O)Nc2ccncc2)cc1)C1CCCN1C(=O)C1CCc2cc(F)ccc21 (stereo not given)', '500 to 5000 nM'),
  ('NC(CNC(=O)Cc1csc(Nc2ccccc2)n1)c1ccc(C(=O)Nc2ccncc2)cc1 (stereo not given)', '500 to 5000 nM'),
  ('NC(CNC(=O)Nc1ccc2ccccc2c1)c1ccc(C(=O)Nc2ccncc2)cc1 (stereo not given)', '50 to 500 nM');

Prompt: Find IC50 (ROCK2 (human) (UniProt O75116)) for the entry COc1ccc(C2(C(=O)N3CCCC3C(N)c3ccc(C(=O)Nc4ccncc4)cc3)CC2)cc1 (stereo not given)
Response: 500 to 5000 nM

Prompt: Form: Entry = N#Cc1cccc(C(=O)NCC(N)c2ccc(C(=O)Nc3ccncc3)cc2)c1 (stereo not given) | System = ROCK2 (human) (UniProt O75116) | IC50 = ____
Response: 500 to 5000 nM

Prompt: Provide value of IC50 for this record tested with ROCK2 (human) (UniProt O75116): CN(CC(N)c1ccc(C(=O)Nc2ccncc2)cc1)C(=O)C1CC(=O)c2ccccc21 (stereo not given)
Response: 500 to 5000 nM

Prompt: Find the measured IC50: item NC(CC(=O)NCCc1cccc(Cl)c1)c1ccc(C(=O)Nc2ccncc2)cc1 (stereo not given) , target or system ROCK2 (human) (UniProt O75116).
Response: 50 to 500 nM

Prompt: Test system ROCK2 (human) (UniProt O75116); read-out IC50; what value for CC(CNC(=O)CC(N)c1ccc(C(=O)Nc2ccncc2)cc1)c1ccc(Cl)cc1 (stereo not given) ?
Response: 50 to 500 nM

====

systemUnderTest: UniProt O75116
method: Inhibition of ROCK2 Kinase Activity
parameterMeasured: IC50

INSERT INTO measurements (molecule, result) VALUES
  ('NC(CNC(=O)Nc1ccccc1F)c1ccc(C(=O)Nc2ccncc2)cc1 (stereo not given)', '50 to 500 nM');

Prompt: Record request: IC50 value, item NC(CC(=O)NCc1ccccc1OC(F)(F)F)c1ccc(C(=O)Nc2ccncc2)cc1 (stereo not given)
Response: 50 to 500 nM

Prompt: Item NC(CNC(=O)C1(c2ccc(F)cc2Cl)CC1)c1ccc(C(=O)Nc2ccncc2)cc1 (stereo not given) has what recorded IC50?
Response: 50 to 500 nM

Prompt: Reported IC50, molecule N[C@@H](CC(=O)N[C@@H]1CCCc2ccccc21)c1ccc(C(=O)Nc2ccncc2)cc1 : ____
Response: 50 to 500 nM

Prompt: # input molecule: COCC(=O)NCC(N)c1ccc(C(=O)Nc2ccncc2)cc1 (stereo not given) ; wanted: its IC50
Response: 500 to 5000 nM

Prompt: Bench note: what IC50 did CN(CC(N)c1ccc(C(=O)Nc2ccncc2)cc1)C(=O)C(C)(C)c1cccs1 (stereo not given) show?
Response: 500 to 5000 nM

Prompt: Please give the measured IC50 for this molecule: COc1ccc(C(=O)NCC(N)c2ccc(C(=O)Nc3ccncc3)cc2)cc1 (stereo not given)
Response: 500 to 5000 nM

Prompt: Suppose we examine the molecule NC(CNC(=O)c1c[nH]cn1)c1ccc(C(=O)Nc2ccncc2)cc1 (stereo not given) ; what IC50 value has been reported?
Response: 500 to 5000 nM

Cited source for all entries: the Kinase Knowledgebase extract (Sharma et al. 2016)
